- Test system: M4BEU human melanoma
- experimentSummary: cells
- Type: cell-based
- statedConditions: read-out: cytotoxic activity
pIC50: −log10 of the molar value.
propertyLabel: pIC50

1. CC1=CCCC(C)=CCC(C)(C)C=CC1 :: > 4.00

###

- System: M4BEU human melanoma
- experimentSummary: cells
- Type: cell-based
- statedConditions: 48 h, read-out: IC50
pIC50: −log10 of the molar value.
propertyLabel: pIC50

1. CC1=CCCC(C)=CCC(C)(C)C=CC1 :: 4.26
2. C=C1CCC=C(C)CC[C@H]2[C@@H]1CC2(C)C (relative stereo) :: 4.37
